- Tested on: Crude diglycosidase
- Assay overview: Examination of temperature in the conversion into isoflavone aglycons by diglycosidase using soybean materials
- Type: biochemical, Penicillium multicolor IAM7153
- Measurement context: 30 °C; heat treatment of enzyme: no; 3 h
Measurement type: Decomposition efficiency of glycitin family in soymilk (%)

I. COc1cc2c(=O)c(-c3ccc(O)cc3)coc2cc1O [glycitein]
II. COc1cc2c(=O)c(-c3ccc(O)cc3)coc2cc1O[C@@H]1O[C@H](COC(=O)CC(=O)O)[C@@H](O)[C@H](O)[C@H]1O [malonylglycitin, 6″-O-malonylglycitin]
Inquiry: From the recorded data, which exceeds the other in Decomposition efficiency of glycitin family in soymilk: I or II ? Give the chosen item's label as your response.
Reply text: I
(I: 60.4%, II: 39.6%)
